# ASSAY_SUMMARY: soluble on expression in E. coli; label from the status in PepcDB or PDB records
OBSERVED_PROPERTY: soluble on expression in E. coli

Solved entries (count: 4):
{"INPUT_SEQUENCE": "MGSDKIHHHHHHMLSTAKERQLKIVNRLKVEQFMRIIDLVELVNYSEATVKRDLVELEKEGLVRRTRGGAMIIDNKKIDLPYLMKMNERSNETSKIRIADIAKSLIRDDMVIFLDSSSTSLHLIDVLSKFDGLQIITNGVMTASMLSEFTNARVSILGGSILTKRYTVNGAKAYNDALTYNADIAFVSCRGIDYDKGATETHEGEALIKQAFRRQSSSLVLLVTEEKVGHKFMHQSLACHDIDYLITDFKLDSDVEEQFKTHQITCLY", "soluble on expression in E. coli": "not soluble"}
{"INPUT_SEQUENCE": "MNNIRLLNQNDLDSYIELMKFGHHNYEWDRYYLENVSIDRLKTILSNHTDYWNIFGAFEDDELVATCTLKQMNYVGKCHKAILENNFVKNNDEIVNRELINHIIQYAKEQNIETLMIAIASNNISAKVFFSSIGFENLAFEKNASKIGNEYFDENWLIYSTTE", "soluble on expression in E. coli": "not soluble"}
{"INPUT_SEQUENCE": "GMTRPAHPISRYPVPELAALPDDIRQRILEVQDKAGFVPNVFLTLAHRPDEFRAFFAYHDALMLKDGGLTKGEREMIVVATSAANQCLYCVVAHGAILRIYEKKPLVADQVAVNYLKADIPPRQRAMLDFALKVCKASHEVNEADFEALREHGFTDEDAWDIAAITAFFGLSNRMANTIGMRPNDEFFLMGRVPKSK", "soluble on expression in E. coli": "soluble"}
{"INPUT_SEQUENCE": "MAGDPMTELEMHLLNALEQLQQDYTQRLKDWESPFTDLQHMFELTRQENGQLREQCDDLSQQVQRLAGQVDHLSRLFITNSRLEHHHHHH", "soluble on expression in E. coli": "not soluble"}

Value of soluble on expression in E. coli reported for the sequence `MANSSPCMKAVRVPKSEAEQVRRLAEKLGVKDKSRRITATGDYVEIPIIDSAESFFKGYTIVEQDNPVFSRKRSLREILRGKVPEELIPTNYKVIGDIVVVKLDERAREYAKVIGEALMQINPCKAVWCDYGRYGMKRKPRMELIAGEGSVTEHRENGCRFRIDVAKVMFSLGNQAERMRIARLVEDGEVVVDMFAGIGYFSIPIAVHSKARRIYSIEINPESYKLLLENIKLNDVGNIVPILGDSQFVTPEGVADRVVMGHIYCHDYLHTAIRALKERGVVHYHEATPEAVIDRPVRRVEKACRKMGKKCRILGFKKVKNYSPGVYHVVVDAEVY` is not soluble

Value of soluble on expression in E. coli reported for the sequence `MSLTPVISAYNWVPPPARGLVRDLRIRWALEELGRPYAVETVLHQDKTAYRAKQPFGQVPAYDDGEVQLFESGAIVLHIAEQDERLLPRDPAARARAIGWMFCALNTLEVPLLQLAELNIFSAGQAWTEGARPKVERWVRQRLGQLAARLGDKTYLDGETFTAGDLLVADVLRQAPDAMLAETPTLVAYRDRCTARPAFQKALAAQLADLNGPPPPGWGEGHHHHHH` is soluble

Value of soluble on expression in E. coli reported for the sequence `MSLKTIAIDFETANEERGSACSVGLAWIEDGQIVRVEERLIRPRDMRFSPFNIAVHGIRPRDVEDAPEFPEVMEEFIDDFHGATMIAHNAAFDFSVMRASFDKYRLSYPDLSYLCSVKIARHVWPHLVSHKLNVIAHHLQLRFVHHNAAEDAVVCAAASIAAARALGVAHIRDLPEKIGEGHHHHHH` is not soluble

---

# ASSAY_SUMMARY: soluble on expression in E. coli; label from the status in PepcDB or PDB records
OBSERVED_PROPERTY: soluble on expression in E. coli

Solved entries (count: 5):
{"INPUT_SEQUENCE": "IDKAIRDGNVLGFRTEYYKTLSEKDDIDDETSSTGIDKKEALENPIRISEIVDFILKNYNRLTKRNEEFFEHNKIANINEVITSRNKLSENKVLTTLNGFNSILACSSINAAKIYYSEFKKQQQKFPQEEKLKIGLIYSYLPSEQ", "OBSERVED_PROPERTY": "soluble on expression in E. coli", "RESULT": "not soluble"}
{"INPUT_SEQUENCE": "MSLTTITLRSAELFDVYLTFRQPMQTAISILSKRRTTILRLTDQEGRIGYGEGVAFETPWYTAETQDSLRALSPLLYRLLAAAPLSSPAAVAARFQPIKGNQMAKAMFDGAVHELFAQAEQTSLAAYLGGDENRSIPCGKALGRSSAEQTVEAVGQALNDGFERIKLKLAPTDTAVLEQVRKSFPGAPLMFDANGSFQVADLPLLQEWDTFSMLMMEQPFPADDWLSHQHAASLLKTPLCLDESIQTTQDALLMRTLQAGQIINIKPARLGGLTAALDVRSISPSYWLGGMFESGIGRRQTLAFATLPGLAYPIDMSGTDQYFIEDLLEQDYIVENGSIRYAEHSVSQERLERLAVSTKKLEGHHHHHH", "OBSERVED_PROPERTY": "soluble on expression in E. coli", "RESULT": "soluble"}
{"INPUT_SEQUENCE": "MSLKIRDPYIDERTNMVVIRESPDVVRLAERLVELQDRNDSEVVLEVEVLEVSSTKLTQLGVQYPNSFTLTPLSATGASSLTLSDFKGLNSDRIGVSTPNVVLNLRRELGDTDLLANPKIRAKNHEKAKILIGDKLPVITTTSTSTGFVSESVQYIDVGLKLEVEPSISPDDEVSMKINLEVSSLTNQITTRSGTVAYQIGTRTANTVLKLHDGETQLLAGLIKTQQTSSAARIPGLGDIPLLGRLFSSQTDNGVRNEIVLSITPRVVKPSHRPDTNEGHHHHHH", "OBSERVED_PROPERTY": "soluble on expression in E. coli", "RESULT": "soluble"}
{"INPUT_SEQUENCE": "MNPKFPDSPFLNDLLARLGEVLRQSPAQDFERNLKAGVTSMLTKLDLVSREEFDVQAAVLARTREKLGQLEARLADLEKHERQADEG", "OBSERVED_PROPERTY": "soluble on expression in E. coli", "RESULT": "not soluble"}
{"INPUT_SEQUENCE": "MALACTDSANSTFSRVDSPTSGPSDQLTTHDLDRHIEKLMRCELIAEQDVKTLCAKAREILAEEGNVQVIDSPVTICGDIHGQFYDLMELFKVGGPVPNTNYLFLGDFVDRGFYSVETFLLLLALKARYPDRMMLIRGNHESRQITQVYGFYDECLRKYGNASVWKHCTEVFDYLSLAAVIDGKVFCVHGGLSPSISTMDQIRVIDRKQEVPHDGPMCDLLWSDPEEGNVGWGLSPRGAGYLFGADASKTFCETNGVDLICRAHQLVMEGYKWHFNEKVLTVWSAPNYCYRCGNVAAILELDENLNKEFTIFEAAPQENRGAPAKKPHADYFL", "OBSERVED_PROPERTY": "soluble on expression in E. coli", "RESULT": "not soluble"}

Could you now look at the following sequence, please?
Value of soluble on expression in E. coli reported for the sequence `PSARDILQQGLDRLGSPEDLASRIDSTLLSPRATEEDVRNLVREASDYGFRCAVLTPVYTVKISGLAEKLGVKLCSVIGFPLGQAPLEVKLVEAQTVLEAGATELDVVPHLSLGPEAVYREVSGIVKLAKSYGAVVKVILEAPLWDDKTLSLLVDSSRRAGADIVKTSTGVYTKGGDPVTVFRLASLAKPLGMGVKASGGIRSGIDAVLAVGAGADIIGTSSAVKVLESFKSLV` is soluble

---

# ASSAY_SUMMARY: soluble on expression in E. coli; label from the status in PepcDB or PDB records
OBSERVED_PROPERTY: soluble on expression in E. coli

{"INPUT_SEQUENCE": "MSLSFKDAVRKRPGMYFGDIDHNAVNHVIYELVANVVDLFLAGRATTLKVDVSECEIIVIDDGPGFPFPVEDSAHNLVERYLTHHHDKPTADDHAPHIHVLGGGLGLAAVNAVSEKLTIESSNGAWRWRQVFGKGDVLAPLESFRYDGPSGSSIKFTLDPSVFHNRLPDFFQLRKAMFELAHLYSGLIVEFDGERYVSKQGLMELAYLMWSGEGHHHHHH", "RESULT": "not soluble"}
{"INPUT_SEQUENCE": "MFQRLFGRERHANRAITDALYAQIVAAARQTVFYSHWNVPDTPLGRFEMLSLHMFLFQHRLRGEGGVAQEIAQVLIDEFFLDVDHSLRELGIGDVGVPKRMKKLAKMFYGRTAAYDDALDRNDRDGLTAALARNVRPDAGTWPEAPQLADYVADACRQLAAQPSQSIVSGTAVFPLAKGGALEHHHHHH", "RESULT": "not soluble"}
{"INPUT_SEQUENCE": "MANGTVLHFRFNVKQIRAKIVRKSYRFFPNDTAGHIRNMHDTMNKIFENSPPAFSYKPIETLNKCIAKVKSDVCHSTGGICKAAMDNVTNWVYNTTEGLFTTGTRLIV", "RESULT": "not soluble"}
